assayExplanation: Half-life of corisin in vitro in a cell culture system
Assay type: in vitro ADME, human
conditionContext: human; 10 µg/ml in FBS(-) DMEM on confluent A549 cells, sampled 0-24 h, enzyme immunoassay, exponential decay model; n = 4 per time point; read-out: Half-life in A549 epithelial cell culture medium (converted)
No end group written: not given here.
measurementType: half-life at 10 µg/ml (min)

{"sequenceCode": "IVMPESSGNPNAVNPAGYR [corisin]", "readoutValue": 42}
